Origin of values: the supplement of paper PMC10724198

Measured protein stability index, listed per entry.
- Test system: Saccharomyces cerevisiae
- Test: protein stability index of tFT-peptide fusion (C-terminal peptide) (PSI (0-1 scale)); higher = more stable (slower turnover)
- Protocol conditions: genetic background: das1 deletion; temperature: 30 C

| Seq text | protein stability index |
| --- | --- |
| FTIYEKVLVMLA [CTP1 C-terminal 12 aa] | 0.286 |
| IEQYLQTYGASA [URA5 C-terminal 12 aa] | 0.708 |
| ILSWYFLETVAV [YMR254C C-terminal 12 aa] | 0.317 |
| DTVVRLIDNIVI [PAN6 C-terminal 12 aa] | 0.69 |

* * *

- System: Saccharomyces cerevisiae
- Test: protein stability index of tFT-peptide fusion (C-terminal peptide) (PSI (0-1 scale)); higher = more stable (slower turnover)
- Protocol conditions: genetic background: doa10 deletion; temperature: 30 C
Tick MET if protein stability index is 0.3 or greater. Tick NOT MET if protein stability index is less than 0.3.

| Seq text | Measured target | Class assignment |
| --- | --- | --- |
| FLFWVLLVGCSF | Saccharomyces cerevisiae | NOT MET |
| FVLFCWFFCIVW | Saccharomyces cerevisiae | NOT MET |
| CFFPFLCFVVGA | Saccharomyces cerevisiae | MET |
| SRSFWHAIVFLA | Saccharomyces cerevisiae | NOT MET |
| SVSFFSLCTSSL | Saccharomyces cerevisiae | MET |
| VSTVCLDFSPFL | Saccharomyces cerevisiae | MET |
| VLVSVSLRVCMV | Saccharomyces cerevisiae | NOT MET |
| GGRLGRAGGGGR | Saccharomyces cerevisiae | MET |
| LCVWRRAIVWVG | Saccharomyces cerevisiae | NOT MET |

* * *

- Tested on: Saccharomyces cerevisiae
- Test: protein stability index of tFT-peptide fusion (C-terminal peptide) (PSI (0-1 scale)); higher = more stable (slower turnover)
- Protocol conditions: genetic background: das1 deletion; temperature: 30 C

| Seq text | protein stability index |
| --- | --- |
| LSLRSLQIMGRN [DSS4 C-terminal 12 aa] | 0.699 |
| VYALSIKRSKLT [EPT1 C-terminal 12 aa] | 0.68 |
| TTHGLKQKLQHA [RTN2 C-terminal 12 aa] | 0.701 |
| TLRGLSNAFPTD [MME1 C-terminal 12 aa] | 0.706 |
| HGGTISLCRFGG [SWT21 C-terminal 12 aa] | 0.686 |
| RIAAGDGDDDDE [QCR9 C-terminal 12 aa] | 0.707 |
| KKLNRKIASIFN [ZEO1 C-terminal 12 aa] | 0.718 |
| RRPSSTSQYLIR [CDC20 C-terminal 12 aa] | 0.692 |

* * *

- Test system: Saccharomyces cerevisiae
- Test: protein stability index of tFT-peptide fusion (C-terminal peptide) (PSI (0-1 scale)); higher = more stable (slower turnover)
- Protocol conditions: genetic background: wild type; temperature: 30 C
Classes (protein stability index): lowest = under 0.6, middle = from 0.6 up to 0.7, highest = 0.7 and over

| Seq text | Class assignment |
| --- | --- |
| RLRCRVLQWVWG | lowest |
| LPVDPDTIIVVK | middle |
| FFFECPCWLGVF | lowest |
| RVLASVGCYLFW | middle |
| KKKNRKQKHKQL | lowest |
| RGGWGGGGAAGS | middle |
| ITSSPSSPPAPP | middle |
| RMTFFGFTVKML | lowest |
| GGSGGGRRGVGR | middle |
| GMFDCIPPGTIP | highest |
| LCGALWGAARGE | highest |
| ARVAFARLPNVC | middle |
| PPSNPLTRAQCL | highest |
| FCIDSLNSFCFV | middle |
| LLLRWWLYSCCP | lowest |
| LLFTWGGRGCLG | highest |
| PPPPRPSPSIYP | highest |
| GPRRGRSGSGWM | middle |
| SCRGKTRPASGR | middle |
| SSFDFVVSLCIY | lowest |
